ASSAY_PROTOCOL: qHTS for Inhibitors of the Aldehyde Dehydrogenase Family (ALDH1A2, ALDH1A3, ALDH2, ALDH3A1) (AID 2061307); note: nearly all actives have a fitted effect of over 50% in size
CONDITION_SET: ALDH inhibition qHTS; series mostly up to 50.3 µM
Inconclusive results are not listed. The source made the active and inactive calls. Calls come from the whole dose curve; as a rule, active = well fitted inhibition curve with a large enough effect; inconclusive = small, poorly fitted or top-dose-only effect; inactive = no such curve, though single readings can be large or run the other way.
Respond with a class label; see active, inactive

// known answers, use as guide
COMPOUND	CLASS
CSc1ncc(CNc2cc([N+](=O)[O-])ccc2C)c(N)n1	active
CC1(C)c2nc(-c3ccc(F)cc3)c(Nc3ccc(F)cc3)n2CCN1C(=O)CN	inactive
COc1cc(O)c(C(CC(=O)N2CC(C)CC(C)C2)c2ccccc2Cl)c(OC)c1 (stereo unspecified)	active

Which result was noted for this compound in the test: O=C(O)c1ccc(-c2noc(-c3cccc(F)c3)n2)cc1
active

Which result was noted for this compound in the test: Fc1cccc(F)c1CNCc1cccnc1-n1cccn1
active

Which result was noted for this compound in the test: CN(C)c1ccc(C(=O)Nc2nnc(C3=COCCO3)o2)cc1
inactive

* * *

TARGET_OF_ASSAY: Retinaldehyde dehydrogenase 3 (Homo sapiens)
ASSAY_PROTOCOL: qHTS for Inhibitors of the Aldehyde Dehydrogenase Family (ALDH1A3) Confirmatory screens (AID 2061311); note: nearly all actives have a fitted effect of over 60% in size
CONDITION_SET: ALDH inhibition qHTS; series mostly up to 46 µM
Records with an inconclusive call do not appear. Activity calls are given as the source filed them. Calls come from the whole dose curve; as a rule, active = well fitted inhibition curve with a large enough effect; inconclusive = small, poorly fitted or top-dose-only effect; inactive = no such curve, though single readings can be large or run the other way.
Respond with a class label; see true (active), false (inactive)

Which result was noted for this molecule in the test: O=C(Nc1ccccc1Cl)c1nc2cccnc2n(Cc2ccccc2)c1=O
false

* * *

TARGET_OF_ASSAY: Retinaldehyde dehydrogenase 3 (Homo sapiens)
ASSAY_PROTOCOL: qHTS for Inhibitors of the Aldehyde Dehydrogenase Family (ALDH1A3) Confirmatory screens (AID 2061311); note: nearly all actives have a fitted effect of over 60% in size
CONDITION_SET: ALDH inhibition qHTS; series mostly up to 46 µM
Results filed as inconclusive are left out. Activity calls are given as the source filed them. The call rests on the fitted dose curve; in most records, active means well fitted inhibition curve with a large enough effect; inconclusive means small, poorly fitted or top-dose-only effect; inactive means no such curve, though single readings can be large or run the other way.
Respond with a class label; see 1 for active, -1 for inactive

O=C(NCc1ccc(F)cc1)c1nc(-c2ccc(Cl)nc2)c2cnccn12 -1

Which result was noted for this compound in the test: COc1cccc(-c2nccc3c(=O)cc(N4CCOCC4)oc23)c1
-1

Which result was noted for this compound in the test: Cc1ccc(-c2cccc(C=O)c2)c(C)c1
-1

Which result was noted for this compound in the test: Cc1ccc2nc3sc(C(=O)N4CCOCC4)cc3cc2c1
1

Which result was noted for this compound in the test: CCOc1ccc(NC(=O)C(=O)NCCc2ccccc2)cc1
-1

Which result was noted for this compound in the test: CC(=O)N1CCN(c2ccc(NCc3ccco3)cc2)CC1
1
